# Test system: Rattus norvegicus
# RUN_DESCRIPTION: Antiallergic activity was evaluated by inhibition of allergen-induced bronchospasm in male Harlan-Wistar rats when administered intraduodenally 15 min prior to antigen challenge
# Type: functional
# CONDITION: intraduodenal
QUANTITY_KIND: log10 ED50 (log10 of the value in mg/kg)
Kindly note that the scale is log10 and the underlying ED50 is in mg/kg.

These solved cases illustrate the format of a correct answer.
C[C@@H]1N=C2N(Cc3ccc(Cl)cc3)c3[nH]cnc3C(=O)N2[C@H]1C | 0.45
Cc1nc2c([nH]1)C(=O)N1CC(C)N=C1N2Cc1ccc(Cl)cc1 (stereo not given) | 0.09
CC1(C)CN2C(=O)c3[nH]cnc3N(Cc3ccc(Cl)cc3)C2=N1 | 0.48
CC1CN2C(=O)c3c(ncn3C)N(Cc3ccc(Cl)cc3)C2=N1 (stereo not given) | 0.53
Cc1nc2c([nH]1)C(=O)N1CCN=C1N2CC(C)C | 0.73

Sure, the documented log10 ED50 for `Cc1nc2c([nH]1)N(Cc1ccc(Cl)cc1)C1=NC(C)(C)CN1C2=O` is 0.03

Sure, the documented log10 ED50 for CC1CN2C(=O)c3[nH]cnc3N(Cc3ccc(Cl)cc3)C2=N1 (stereo not given) is 0.18

Sure, the documented log10 ED50 for `C[C@H]1N=C2N(Cc3ccc(Cl)cc3)c3[nH]cnc3C(=O)N2[C@H]1C` is 0.23

Sure, the documented log10 ED50 for `O=C1c2[nH]cnc2N(Cc2ccc(Cl)cc2)C2=NCCN12` is -0.05

Sure, the documented log10 ED50 for Cc1nc2c(n1C)C(=O)N1CC(C)N=C1N2Cc1ccc(Cl)cc1 (stereo not given) is 1.15

* * *

# Tested on: Rattus norvegicus
# RUN_DESCRIPTION: Antiallergic activity was evaluated by passive cutaneous anaphylaxis test in egg albumin sensitized male Harlan-Sprague-Dawley rats when administered perorally
# Assay type: functional
# CONDITION: po
Let's look at some molecules and their measured ED50.
Quick note: give the figure in mg/kg, leave out the unit.

These solved cases illustrate the format of a correct answer.
C[C@@H]1N=C2N(Cc3ccc(Cl)cc3)c3[nH]cnc3C(=O)N2[C@H]1C | 35.5
Cc1nc2c(n1C)C(=O)N1CC(C)N=C1N2Cc1ccc(Cl)cc1 (stereo not drawn) | 38.7

Now look at this one.
Item: CC1CN2C(=O)c3c(ncn3C)N(Cc3ccc(Cl)cc3)C2=N1 (stereo not drawn) | System: Rattus norvegicus | ED50: 28.9

* * *

Let's look at some compounds and their measured IC50.
# Species on record: Rattus norvegicus
# RUN_DESCRIPTION: Antiallergic activity by passive cutaneous anaphylaxis test in vitro in rats
# Assay type: functional
Quick note: give the figure in µM, leave out the unit.

Sure, the documented IC50 for `O=C1c2[nH]cnc2N(Cc2ccc(Cl)cc2)C2=NCCN12` is 490

Sure, the documented IC50 for `Cn1c(=O)c2nc[nH]c2n(C)c1=O.O` is 2500

* * *

# Test system: Rattus norvegicus
# RUN_DESCRIPTION: Antiallergic activity by passive cutaneous anaphylaxis test in ovalbumin sensitized male Harlan-Sprague-Dawley rats at 25 mg/kg oral dose (inactive)
# Format: functional, organism-based
# Design: dose 25 mg/kg
Activity calls are given as the source filed them. The rule behind the calls is not given here.
QUANTITY_KIND: ED50

O=C1c2[nH]cnc2N(CCc2ccc(Cl)cc2)C2=NCCN12 | inactive
O=C1c2nc[nH]c2N(CC2CCCCC2)C2=NCCN12 | inactive
O=C1c2nc[nH]c2N(Cc2ccccc2)C2=NCCN12 | inactive
Cn1cnc2c1C(=O)N1CCN=C1N2Cc1ccc(Cl)cc1 | inactive

Measured values drawn from ChEMBL document CHEMBL1121553 for this set.
